Molecular target: Nrg2 (UniProt P38082)
Sequence: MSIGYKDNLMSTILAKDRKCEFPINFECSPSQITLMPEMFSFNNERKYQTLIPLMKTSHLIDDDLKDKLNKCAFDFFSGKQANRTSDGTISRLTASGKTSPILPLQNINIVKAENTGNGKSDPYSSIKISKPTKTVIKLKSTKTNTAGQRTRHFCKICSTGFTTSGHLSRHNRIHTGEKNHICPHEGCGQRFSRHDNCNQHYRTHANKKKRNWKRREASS
Assay: PBM E-score (8-mer binding enrichment) (E-score (-0.5 to 0.5)); higher = stronger / more preferred TF binding
Settings: protein concentration: 100 nM; construct: GST-full length
Whole data set: some 33,000 sequences, median “E-score (-0.5 to 0.5)” near -8e-05, cut for the highest 2% near 0.23. What follows is part of a selection rich in the highest values, with near analogues and random picks from the rest.
PBM E-score class ranges: lower bin: < 0.003; middle bin: ≥ 0.003 and < 0.08; upper bin: ≥ 0.08

GTGATGAA    middle bin
ACTAATCT    middle bin
ATGATGAA    upper bin
CTCGATCC    lower bin
ATTTCGTA    middle bin
CTGATCTA    middle bin
GAAATGAA    upper bin
CAGTACTC    lower bin
AAAATGAC    middle bin

###

Target: Nrg2 (UniProt P38082)
Sequence: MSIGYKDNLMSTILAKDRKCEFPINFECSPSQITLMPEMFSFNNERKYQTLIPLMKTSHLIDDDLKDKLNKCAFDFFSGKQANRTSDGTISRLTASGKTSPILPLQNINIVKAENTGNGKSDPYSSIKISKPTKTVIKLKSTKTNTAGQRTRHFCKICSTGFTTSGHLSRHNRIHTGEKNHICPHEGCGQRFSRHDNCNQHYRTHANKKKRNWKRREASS
Experiment: PBM E-score (8-mer binding enrichment) (E-score (-0.5 to 0.5)); higher = stronger / more preferred TF binding
Conditions: protein concentration: 100 nM; construct: GST-full length
Whole data set: some 33,000 sequences, median “E-score (-0.5 to 0.5)” near -8e-05, cut for the highest 2% near 0.23. Many of the other results were omitted from the sample, so the highest values are more common in it than they were.
Decide using PBM E-score: a value greater than or equal to -0.04 is class 1, a smaller one is class 0.

ATCGCGAC    class 1
GTCCCAGA    class 0
CTCCCTTA    class 0
CACGCGGG    class 0
AACTATCG    class 1
GCAATAAA    class 1
CCAATAAA    class 1
GGCAATTA    class 1
TTCGCGAA    class 1
ATCCCTGG    class 1
CGGACGAA    class 1
GAAAGCCC    class 1
GGGGTTCA    class 1
AAAACTTA    class 1
GAAAAATC    class 1
ATCGCGAA    class 1
AGATCTAT    class 0
AACTGACT    class 0
GTGGCAGA    class 0
TAGCAACA    class 1
CCCGCGGA    class 1
GAGCAAGA    class 1
GCAATACC    class 1
CTCGCGAC    class 1
GCCTGACA    class 0
GCTGTGTA    class 0
TGGATAAA    class 1
AAAGTTGT    class 1
CGGATAAC    class 1
ATCCCTGC    class 1
AGGGTGCA    class 1
AGAACCGC    class 1
CATGGCCA    class 0
AACCCGAA    class 1
ATCCCTGA    class 1
ACAGCTCC    class 0
AAAGTCTA    class 0
ATCCCTTA    class 1
ACCGCGGG    class 1
TATACTGA    class 1
CGGACGAC    class 0
GTCTTTCA    class 0
AACGTAGG    class 0

###

Molecular target: Nrg2 (UniProt P38082)
Sequence: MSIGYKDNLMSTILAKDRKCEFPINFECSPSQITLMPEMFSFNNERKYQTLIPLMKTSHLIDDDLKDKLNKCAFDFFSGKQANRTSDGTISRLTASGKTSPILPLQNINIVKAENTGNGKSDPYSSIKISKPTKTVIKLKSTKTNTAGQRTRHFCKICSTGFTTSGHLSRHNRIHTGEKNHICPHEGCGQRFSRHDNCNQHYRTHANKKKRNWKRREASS
Test: PBM E-score (8-mer binding enrichment) (E-score (-0.5 to 0.5)); higher = stronger / more preferred TF binding
Conditions: protein concentration: 100 nM; construct: GST-full length
The full ranking holds about 33,000 sequences; the median of “E-score (-0.5 to 0.5)” is about -8e-05, and the highest 2% start at about 0.23. The list comes from a sample in which the highest values are over-represented; it also holds close analogues and randomly drawn sequences.
endpoint_label: PBM E-score

ATCAATAC    0.136
AAGTGATT    0.0989
AATGCTGC    0.0363
CTAAACCA    -0.179
ACGAAGAC    -0.135
CAGGCCTG    0.115
ACATAAAC    0.0128
AATAAAGA    0.0604
AGGCTTGC    -0.173
CGTCGCCC    -0.282
